Exercise: state measured activation at 0.1 µM for each of the molecules provided.
- assay-system: α1 subtype containing GABA-A receptors (Homo sapiens, UniProt P14867+P18507)
- Construct: expressed in transfected cells; host or cells: Xenopus laevis oocytes, cRNA injected
- Sequence (P14867 28-456): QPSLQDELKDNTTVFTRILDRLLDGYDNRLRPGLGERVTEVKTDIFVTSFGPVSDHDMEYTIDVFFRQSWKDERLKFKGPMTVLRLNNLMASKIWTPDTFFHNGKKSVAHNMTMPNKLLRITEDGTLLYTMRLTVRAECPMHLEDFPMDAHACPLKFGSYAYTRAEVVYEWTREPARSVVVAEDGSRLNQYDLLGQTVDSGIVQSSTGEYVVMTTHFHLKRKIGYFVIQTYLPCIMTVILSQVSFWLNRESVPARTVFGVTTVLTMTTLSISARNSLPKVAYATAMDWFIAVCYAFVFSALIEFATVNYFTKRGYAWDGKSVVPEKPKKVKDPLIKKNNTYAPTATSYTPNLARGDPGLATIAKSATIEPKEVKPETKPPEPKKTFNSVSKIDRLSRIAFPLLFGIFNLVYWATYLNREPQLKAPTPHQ
- Sequence (P28472 26-473 partner): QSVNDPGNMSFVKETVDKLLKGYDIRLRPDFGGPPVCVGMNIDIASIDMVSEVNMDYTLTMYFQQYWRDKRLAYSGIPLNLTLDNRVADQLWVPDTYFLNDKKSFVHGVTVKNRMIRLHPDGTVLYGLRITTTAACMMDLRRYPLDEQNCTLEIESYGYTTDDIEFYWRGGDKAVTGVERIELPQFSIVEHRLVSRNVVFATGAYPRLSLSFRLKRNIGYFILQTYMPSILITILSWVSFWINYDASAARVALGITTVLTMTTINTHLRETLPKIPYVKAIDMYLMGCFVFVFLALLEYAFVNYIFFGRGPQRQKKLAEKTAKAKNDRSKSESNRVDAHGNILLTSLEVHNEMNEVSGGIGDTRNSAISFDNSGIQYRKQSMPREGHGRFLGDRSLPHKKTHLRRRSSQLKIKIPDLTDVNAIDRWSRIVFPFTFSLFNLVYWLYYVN
- Sequence (P18507 40-475): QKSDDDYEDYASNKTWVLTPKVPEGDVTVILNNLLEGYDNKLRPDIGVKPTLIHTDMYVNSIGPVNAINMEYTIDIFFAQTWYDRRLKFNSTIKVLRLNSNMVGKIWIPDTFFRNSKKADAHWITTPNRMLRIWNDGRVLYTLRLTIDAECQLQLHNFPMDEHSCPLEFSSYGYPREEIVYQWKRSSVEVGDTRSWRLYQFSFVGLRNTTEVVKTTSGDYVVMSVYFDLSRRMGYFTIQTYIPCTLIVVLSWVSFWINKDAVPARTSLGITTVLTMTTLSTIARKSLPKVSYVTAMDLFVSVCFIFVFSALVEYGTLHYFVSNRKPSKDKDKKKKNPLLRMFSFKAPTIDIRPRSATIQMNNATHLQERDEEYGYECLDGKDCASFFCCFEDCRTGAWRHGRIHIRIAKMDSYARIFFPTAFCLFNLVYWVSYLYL
- procedure-summary: Two-electrode voltage clamp electrophysiology in Xenopus oocytes, potentiation of GABA EC20 response, α1
- Format: cell-based
- run-conditions: 100 nM compound, read-out: Percentage of potentiation alpha1

# mol-smiles, result
rows = [
    ("CNC(=O)c1nc(Cc2c(-c3ccc(F)cc3)nc3ccc(F)cn23)no1", "-10 to 10%"),
    ("CN(CCO)c1cncc(Cc2c(-c3ccc(Cl)cc3)nc3ccccn23)n1", "10 to 50%"),
]

For every record below, what is its activation at 0.1 µM?
1. Cn1ncnc1Cc1c(-c2ccc(F)cc2)nc2ccc(F)cn12
2. Cc1nnc(Cc2c(-c3ccc(Cl)cc3)nc3ccccn23)[nH]1
3. Fc1ccc(-c2nc3ccc(Cl)cn3c2CNc2nccc(CN3CCCC3)n2)cc1
4. O=C(NO)c1nc(Cc2c(-c3ccc(F)cc3)nc3ccc(F)cn23)no1
5. Cn1ncnc1Cc1c(-c2ccc(Cl)cc2)nc2ccccn12
6. CN(O)C(=O)c1nc(Cc2c(-c3ccc(F)cc3)nc3ccc(F)cn23)no1
7. O=c1ccn(Cc2c(-c3ccc(Cl)cc3)nc3ccccn23)c(=O)[nH]1
8. CN(C)CCNC1=CC(=O)N(Cc2c(-c3ccc(Br)cc3)nc3ccccn23)C1

1: 10 to 50%; 2: 10 to 50%; 3: ≥ 50%; 4: ≤ -10%; 5: 10 to 50%; 6: ≤ -10%; 7: 10 to 50%; 8: 10 to 50%

For every record below, what is its activation at 0.1 µM?
1. Clc1ccc(-c2nc3ccccn3c2Cn2nccn2)cc1
2. Clc1ccc(-c2nc3cccnn3c2Cn2cncn2)cc1
3. CN(C)CCNC1=CC(=O)N(Cc2c(-c3ccc(Cl)cc3)nc3ccccn23)C1
4. O=c1cc(Cl)n(Cc2c(-c3ccc(Cl)cc3)nc3ccccn23)c(=O)[nH]1

1: 10 to 50%; 2: 10 to 50%; 3: -10 to 10%; 4: -10 to 10%

For every record below, what is its activation at 0.1 µM?
1. Clc1ccc(-c2nc3ccccn3c2Cn2ccnn2)cc1
2. O=c1n(Cc2c(-c3ccc(Cl)cc3)nc3ccccn23)nc2ccccn12
3. Cc1ccnc(NCc2c(-c3ccccc3)nc3ccc(Cl)cn23)n1

1: -10 to 10%; 2: -10 to 10%; 3: -10 to 10%

* * *

- assay-system: α1 subtype containing GABA-A receptors (Homo sapiens, UniProt P14867+P18507)
- Construct: expressed in transfected cells; host or cells: Xenopus laevis oocytes, cRNA injected
- procedure-summary: Two-electrode voltage clamp electrophysiology in Xenopus oocytes, potentiation of GABA EC20 response, α1
- Assay type: cell-based
- run-conditions: 100 nM compound, read-out: Percentage of potentiation alpha1
- Description: Electrophysiology protocol: Oocytes were prepared from adult female Xenopus laevis frogs. cRNA encoding human α1, α2, α3, α5, β3 and γ2L GABAA receptor subunits was injected into the cytoplasm of stage 5 or 6 oocytes using the Robocyte Robot (Multi Channel Systems, Reutlingen, Germany). Two-electrode voltage clamp recordings were made in 96-well plates using the Robocyte Robot. […]
parameter: activation at 0.1 µM

// known answers, use as guide
# compound, parameter, result
measured = [
    ("Cc1ccn(Cc2c(-c3ccc(Cl)cc3)nc3ccccn23)c(=O)n1 [Compound 105]", "activation at 0.1 µM", "10 to 50%"),
    ("NC(=O)c1nc(Cc2c(-c3ccc(Cl)cc3)nc3ccc(F)cn23)no1 [Compound 217]", "activation at 0.1 µM", "10 to 50%"),
    ("OC[C@H]1CCCN1c1ccnc(NCc2c(-c3ccccc3)nc3ccc(Cl)cn23)n1 [Compound 188]", "activation at 0.1 µM", "≥ 50%"),
    ("Cc1ccc(-c2nc3ccc(C)cn3c2CSc2nnc(C)s2)cc1 [Compound 179]", "activation at 0.1 µM", "-10 to 10%"),
]

// below: activation at 0.1 µM requested for another compound
What value of activation at 0.1 µM has been reported for the following compound? Cc1ccc(-c2nc3ccc(C)cn3c2CNc2ncccn2)cc1 [Compound 139]
10 to 50%
